Listing of entries alongside the reported protein stability index.
B1: DLC1 (parent)
chain: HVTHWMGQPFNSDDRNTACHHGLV

- Variants of: B1
- protocol: protein stability index of a GFP-peptide fusion (GPS, HEK-293T) (PSI 1-6); higher = more stable;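 further: lentivirally expressed fusions sorted by FACS into six bins by GFP to DsRed ratio, PSI derived from sequencing read proportions per bin multiplied by bin number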
- run_parameters: c terminus: a fixed tail appended
Lab note: write the figure by itself, no unit.

L23H : 2.46
S12T : 2.02

GET /values?readout=protein stability index&item= N11L 2.14

Further, for S12I ? 2.05

Further, for C19P ? 2.43

Further, for H21N ? 2.66

Further, for M6P ? 2.44

Further, for H1T ? 2.91

Further, for H20Q ? 2.46

Further, for F10W ? 1.93

Further, for C19R ? 2.4
